# tested_target: TSPO
# assay_text: Competition binding assay with [3H]PK11195 and unlabelled vinpocetine in human brain membranes
# experimental_conditions: average of HAB and LAB means; read-out: mean Ki value of HABs and LABs
experimental_endpoint: Ki (nM)
Output spec: scalar in nM, unitless text.

### Prompt Would you mind telling me what Ki value was observed for CCOC(=O)C1=C[C@]2(CC)CCCN3CCc4c(n1c1ccccc41)[C@@H]32 [Vinpocetine, ethyl apovincaminate] ?
### Response 443

====

# tested_target: TSPO (Homo sapiens, UniProt P30536, T147A)
# Sequence (P30536 2-169 T147A): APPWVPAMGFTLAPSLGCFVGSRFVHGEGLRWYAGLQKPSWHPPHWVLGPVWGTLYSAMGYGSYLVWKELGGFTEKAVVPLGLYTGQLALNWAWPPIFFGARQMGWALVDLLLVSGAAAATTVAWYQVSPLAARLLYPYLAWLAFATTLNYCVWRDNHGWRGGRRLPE
# assay_text: Competition radioligand binding assay with [3H]PK11195 and unlabelled GE1 in HABs and LABs
# Parameters: from tissue; host or cells: human brain (membrane preparation, by the cited method)
# experimental_conditions: 6 HABs, racemate; read-out: Ki, mean of HABs
experimental_endpoint: Ki

### Prompt Sample CCN(CC)C(=O)C1CCCC2C1c1c(OC)cccc1N2CCF (stereo not shown) — what was its Ki?
### Response 12.3 nM

====

# tested_target: TSPO (Homo sapiens, UniProt P30536, T147A)
# assay_text: Competition binding assay, unlabelled PBR28 displacing [3H]PK11195 in human platelet membranes
# Set-up: from tissue
# experimental_conditions: HABs (27/41 subjects), platelets, mean±SEM; read-out: Ki, single class of high affinity sites
experimental_endpoint: pKi
As a rule, pKi stands for the negative log10 of the concentration, concentration in M.

### Prompt Could you share which pKi value was measured for COc1ccccc1CN(C(C)=O)c1cnccc1Oc1ccccc1 [PBR28] ?
### Response 8.66

====

# tested_target: TSPO (Homo sapiens)
# assay_text: Competition binding assay with [3H]PK11195 and unlabelled vinpocetine in human brain membranes
# Parameters: Ki MAB; Vinpocetine Ki, MAB
# experimental_conditions: A/T subjects, mixed affinity binder, human brain, mean (SEM); read-out: Vinpocetine Ki, MAB
experimental_endpoint: Ki

### Prompt Fill blank: measured Ki of the molecule CCOC(=O)C1=C[C@]2(CC)CCCN3CCc4c(n1c1ccccc41)[C@@H]32 [Vinpocetine, ethyl apovincaminate] is ____.
### Response 332 nM

====

# tested_target: TSPO (Homo sapiens, UniProt P30536, T147A)
# assay_text: Competition binding assay with [3H]PK11195 and unlabelled vinpocetine in human brain membranes
# Design: from tissue; host or cells: human brain (membrane preparation, by the cited method)
# experimental_conditions: A/A subjects, high affinity binder, human brain, mean (SEM); read-out: Vinpocetine Ki, HAB
experimental_endpoint: pKi
Just the number, please; pKi means minus log10 of the concentration in mol/L.

### Prompt Returns the measured pKi for the input compound. Input: CCOC(=O)C1=C[C@]2(CC)CCCN3CCc4c(n1c1ccccc41)[C@@H]32 [Vinpocetine, ethyl apovincaminate]
### Response 6.11

====

# tested_target: TSPO (Homo sapiens, UniProt P30536)
# assay_text: Competition binding with [3H]PK11195 in human brain (method of J Nucl Med 2011;52:24-32)
# Design: from tissue; host or cells: human brain (membrane preparation, by the cited method)
# experimental_conditions: low affinity binders, human brain; read-out: Ki LAB
# Sequence (P30536 2-169): as the sequence (P30536 2-169 T147A) above, with A146T counted along it
experimental_endpoint: Ki (µM)
Response body: numeric value in µM, unit text excluded.

Field: example entries. Status: answers known.
COc1ccc(OC)c(CN(C(=O)CF)c2ccccc2Oc2ccccc2)c1 [PBR06] | 0.149
CCN(CC)C(=O)C1CCCC2C1c1c(OC)cccc1N2CCF (stereo not drawn) [GE1] | 0.145
CCN(Cc1ccccc1)C(=O)Cn1c(=O)n(C)c2cnc(-c3ccccc3)nc21 [Emapunil] | 0.0303
CCN(CC)C(=O)Cc1c(-c2ccc(OCCCF)cc2)nc2ccc(Cl)cn12 [PBR111] | 0.0618
COc1ccc(OC)c(CN(C(C)=O)c2cc(F)ccc2Oc2ccccc2)c1 [DAA1106] | 0.0131

Here's the next entry for you.
### Prompt I'd like to know its Ki. The compound in question is COc1ccccc1CN(C(C)=O)c1cnccc1Oc1ccccc1 [PBR28]
### Response 0.188
